The entries below are paired with their reported normalized growth.
- test name: chemical genetic growth profiling, strain panel (AID 1159580);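 further: tested at 20 µM; growth read once vehicle control cultures reached saturation at 30 °C; 1 = growth at the plate median or of vehicle wells; lower values mean less growth of the strain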
- measurement conditions: S. cerevisiae deletion strains, growth OD, locus YDR388W, hits give low values
Among all 5,500 compounds or so, about 2,000 (36%) were called active. About 18% were inconclusive and are not listed. This is one part of the list.
measurement name: normalized growth

{"columns": ["molecule", "measurement name", "reported"],
 "data": [
  ["OC[C@H]1O[C@@H](O[C@H]2[C@H](O)[C@@H](O)[C@@H](O)O[C@@H]2CO)[C@H](O)[C@@H](O)[C@@H]1O", "normalized growth", 1.02],
  ["Oc1c(Cl)cc(Cl)cc1Sc1cc(Cl)cc(Cl)c1O", "normalized growth", 0.983],
  ["OC[C@H]1O[C@@](CO)(O[C@@H]2O[C@H](CO)[C@@H](O)[C@H](O)[C@H]2O)[C@@H](O[C@@H]2O[C@H](CO)[C@@H](O)[C@H](O)[C@H]2O)[C@@H]1O", "normalized growth", 1.01],
  ["CCOC(=O)[C@H](CCc1ccccc1)N[C@@H](C)C(=O)N1CCC[C@H]1C(=O)O", "normalized growth", 1.02],
  ["CC(=O)O[C@@H]1CC2C(C)(C)C(=O)C=C[C@]2(C)C2CC[C@]3(C)C(=CC(=O)O[C@H]3c3ccoc3)[C@@]21C (some centres not stated)", "normalized growth", 0.983],
  ["C[C@H]1c2cccc(O)c2C(O)=C2C(=O)[C@]3(O)C(O)=C(C(N)=O)C(=O)[C@@H](N(C)C)[C@@H]3[C@@H](O)[C@@H]21", "normalized growth", 0.98],
  ["CC(=O)c1cc(CC=C(C)C)c(O)c(CC=C(C)C)c1", "normalized growth", 0.977],
  ["CC(=O)O[C@H]1CC[C@@]2(C)C(C[C@@H](OC(C)=O)[C@@]3(C)C4=CC(=O)O[C@@H](c5ccoc5)[C@]4(C)CCC23)C1(C)C (some centres not stated)", "normalized growth", 1],
  ["COc1cc(C(C)=O)cc(OC)c1O", "normalized growth", 0.994],
  ["CC12CCC(=O)C=C1CCC1C2[C@@H](O)CC2(C)C1CC[C@]2(O)C(=O)COP(=O)(O)O (some centres not stated)", "normalized growth", 1],
  ["NC(Cn1ccc(=O)c(O)c1)C(=O)O (configuration not stated)", "normalized growth", 0.993],
  ["CC(CCC(=O)O)[C@H]1CCC2C3CC[C@@H]4CC(=O)CC[C@]4(C)C3C=C[C@@]21C (some centres not stated)", "normalized growth", 1.01],
  ["CO[C@H]1CC(O[C@@H]2/C(C)=C/C[C@@H]3C[C@@H](C[C@]4(CC[C@H](C)[C@@H](C5CCCCC5)O4)O3)OC(=O)[C@@H]3C=C(C)/C(=N\\O)[C@H]4OC/C(=C\\C=C\\[C@@H]2C)[C@]43O)O[C@@H](C)C1O (some centres not stated)", "normalized growth", 0.991],
  ["C[C@H](CCC(=O)O)[C@H]1CCC2C3C(=O)CC4CC(=O)CC[C@]4(C)C3CC(=O)[C@@]21C (some centres not stated)", "normalized growth", 1],
  ["NS(=O)(=O)c1cc2c(cc1Cl)NC(CSCc1ccccc1)=NS2(=O)=O", "normalized growth", 0.978],
  ["CC(Cc1cccc(C(F)(F)F)c1)NCCOC(=O)c1ccccc1 (configuration not stated)", "normalized growth", 0.811],
  ["C=C1c2cccc(O)c2C(O)=C2C(=O)[C@]3(O)C(O)=C(C(N)=O)C(=O)[C@@H](N(C)C)[C@@H]3[C@@H](O)[C@H]12", "normalized growth", 0.991]
]}
